# measured-target: Sho1, P40073
# Sequence (P40073 287-367): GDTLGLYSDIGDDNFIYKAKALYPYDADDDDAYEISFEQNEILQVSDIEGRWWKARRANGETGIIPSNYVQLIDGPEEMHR
# measurement-protocol: SPOT array
# condition-parameters: median of control spots 1148
endpoint-name: SPOT intensity
Response field accepts a number only; no unit should be typed.

**Q:** What value of SPOT intensity has been reported for the following binder? `VTHRLRISIPGITGR`
**A:** 180

**Q:** What value of SPOT intensity has been reported for the following binder? `TKRKRPARLIFYDSK`
**A:** 91

**Q:** What value of SPOT intensity has been reported for the following binder? `SSAAPPPPPRRATPE`
**A:** 3

**Q:** What value of SPOT intensity has been reported for the following binder? `KNRKNLPTIPIRLSG`
**A:** 1660

**Q:** What value of SPOT intensity has been reported for the following binder? `FYHRPAPKPPVTKKV`
**A:** 8

**Q:** What value of SPOT intensity has been reported for the following binder? `QHQQRQPKRPKRYSL`
**A:** 115

**Q:** What value of SPOT intensity has been reported for the following binder? `MARRRLPDRPPNGIG`
**A:** 393
